# Method description: CC50 assay in the anti-HCV replicon assay (CellTiter-Glo)
# Type: cell-based, human
# Assay context: human, Huh-7 hepatoma cells harbouring an HCV replicon; Huh-7 HCV replicon cells, 3 days incubation, CellTiter-Glo luminescence

Smiles input | CC50 at 3 days
COCCOc1nc(N)nc2ccc(-c3ccc(Cl)s3)cc12 | > 20 µM
COCCOc1nc(N)nc2ccc(-c3ccccc3C(F)(F)F)cc12 | < 10 µM
CC(C)Oc1nc(N)nc2ccc(-c3ccsc3)cc12 | 10 to 20 µM
CCOc1nc(N)nc2ccc(-c3ccc(C(=O)Nc4ccc(F)cc4)cc3)cc12 | < 10 µM
CC(C)Oc1nc(N)nc2ccc(-c3cc(F)cc(F)c3)cc12 | > 20 µM
COCCOc1nc(N)nc2ccc(-c3cc4ccccc4s3)cc12 | > 20 µM
Nc1nc(OCCN2CCOCC2)c2cc(-c3cccs3)ccc2n1 | > 20 µM
COCCOc1nc(N)nc2ccc(-c3ccc(F)c(F)c3F)cc12 | > 20 µM
Nc1nc(OCCF)c2cc(-c3ccc(C(=O)N4CCCCC4)cc3)ccc2n1 | > 20 µM
CC(C)(C)NC(=O)c1ccc(-c2ccc3nc(N)nc(OCCF)c3c2)cc1 | > 20 µM
CN(C)CCCOc1nc(N)nc2ccc(-c3ccc(Cl)cc3)cc12 | > 20 µM
Nc1nc(OCC2CCC2)c2cc(-c3ccco3)ccc2n1 | > 20 µM
Nc1nc(OCC2CCC2)c2cc(-c3ccc(Cl)cc3Cl)ccc2n1 | > 20 µM
CCOc1nc(N)nc2ccc(-c3cn[nH]c3)cc12 | > 20 µM
CNC(=O)c1ccc(-c2ccc3nc(N)nc(OCc4ccccc4)c3c2)cc1 | > 20 µM
Nc1nc(OCCF)c2cc(-c3ccc(C(=O)NC4CC4)cc3)ccc2n1 | > 20 µM
CCOc1nc(N)nc2ccc(-c3ccc(C(=O)NCCN(C)C)cc3)cc12 | < 10 µM
Nc1nc(OCCF)c2cc(-c3ccc(C(=O)NC4CCCC4)cc3)ccc2n1 | 10 to 20 µM
CCOc1nc(N)nc2ccc(-c3ccc(C(=O)NCc4ccco4)cc3)cc12 | > 20 µM
CC(C)CNC(=O)c1ccc(-c2ccc3nc(N)nc(OCCO)c3c2)cc1 | > 20 µM
CC(C)Oc1nc(N)nc2ccc(-c3ccc(F)c(F)c3)cc12 | 10 to 20 µM
COCCOc1ncnc2ccc(-c3ccc(F)cc3)cc12 | > 20 µM
CCOc1nc(NCc2ccc(S(N)(=O)=O)cc2)nc2ccc(-c3ccc(NC(=O)N4CCCC4)cc3)cc12 | 10 to 20 µM
CC(C)Oc1nc(N)nc2ccc(-c3cccc(Cl)c3)cc12 | > 20 µM
CNC(=O)c1ccc(-c2ccc3ncnc(OC(C)C)c3c2)cc1 | > 20 µM
CC(C)Oc1nc(N)nc2ccc(-c3ccoc3)cc12 | 10 to 20 µM
CC(C)Oc1nc(N)nc2ccc(-c3ccc(C(=O)NC4=NCCS4)cc3)cc12 | 10 to 20 µM
CNC(=O)c1ccc(-c2ccc3nc(N)nc(OCCF)c3c2)cc1Cl | > 20 µM
Nc1nc(OCCN2CCOCC2)c2cc(-c3cccc(F)c3F)ccc2n1 | > 20 µM
Nc1nc(OCC2CCC2)c2cc(-c3ccsc3)ccc2n1 | 10 to 20 µM
CCOc1nc(N)nc2ccc(-c3cccc(C(=O)NC)c3)cc12 | > 20 µM
CCOc1nc(NCc2ccc(S(N)(=O)=O)cc2)nc2ccc(-c3ccc(F)cc3)cc12 | < 10 µM
CC(=O)Nc1ccc(-c2ccc3nc(N)nc(OCC(F)(F)F)c3c2)cc1 | > 20 µM
Nc1nc(OCC2CCC2)c2cc(-c3ccc(F)c(F)c3F)ccc2n1 | > 20 µM
CONC(=O)c1ccc(-c2ccc3nc(N)nc(OCCF)c3c2)cc1 | > 20 µM
